Endpoint: GI50. System: U251 CNS. Items follow.
Observed property: GI50

• N#Cc1nn(-c2cc(=O)[nH]c3ccc(Br)cc23)c(N)c1C#N = 88.1 µM
• Cc1c(-c2nnc(-c3cc(Cl)c(Cl)cc3Cl)o2)nnn1-c1ccnc2c(C(F)(F)F)cccc12 = 19.3 µM
• Nc1c2ccccc2nc2ccccc12 (tested in a mixture with another compound) = 2.68 µM
• CC(C)(C)c1cc(-c2nc3c(F)c(F)c(F)c(F)c3[nH]2)cc(C(C)(C)C)c1O = > 100 µM
• O=C(NCCCCCCNC(=O)OCc1ccc2c(Cl)cc(Cl)c(O)c2n1)OCc1ccc2c(Cl)cc(Cl)c(O)c2n1 = 1.44 µM
• Nc1nc(-c2ccccc2)cc(-c2ccc(Cl)cc2)c1-c1nc2ccccc2o1 = 9.2 µM
• C[CH2][Sn]([CH2]C)([O]C(=O)c1ccc(F)cc1)[O][Sn]([CH2]C)([CH2]C)[O]C(=O)c1ccc(F)cc1 = 29.8 µM
• Oc1c(CN2CCN(c3ccccc3F)CC2)cc(Br)c2cccnc12 = 0.529 µM
• COc1cc(C)c(NC(=O)CN(C)C)cc1Nc1nc(Nc2cccc(F)c2C(N)=O)c2cc[nH]c2n1 = 3.12 µM
• C=CCSSc1ncnc2c1ncn2C1OC(CO)C(O)C1O (configuration not stated) = 13.5 µM
• CN1CCN(CC(=O)N2c3cccc4cccc(c34)N(C(=O)CN3CCN(C)CC3)C2c2cn(-c3ccccc3)nc2-c2cccc([N+](=O)[O-])c2)CC1 = 1.9 µM
• COc1cc(/C=C2\C[C@H]3[C@@H]4CC=C5C[C@@H](OC(C)=O)CC[C@]5(C)[C@H]4CC[C@]3(C)[C@H]2OC(C)=O)ccc1OCCN1CCCCC1 = 8.76 µM

* * *

Tested on: NCI/ADR-RES ovarian
Assay: NCI tumour cell line growth inhibition, 48 h
Each entry below carries its recorded TGI.
Observed property: TGI (µM)

* CCOC(=O)c1cc(C#N)[nH]c1-c1ccsc1 | 94.9
* CC[CH2][Sn]([CH2]CC)([O]C(=O)Cc1ccc(F)cc1)[O][Sn]([CH2]CC)([CH2]CC)[O]C(=O)Cc1ccc(F)cc1 | 1.93

* * *

Test system: KM12 colon
Assay: NCI tumour cell line growth inhibition, 48 h
# Lookup of reported TGI keyed by entry
Observed property: TGI (µM)

- Fc1ccc(-c2nc(Nc3ccc(-c4nc5ccccc5[nH]4)cc3)nc(N3CCOCC3)n2)cc1: 1.41
- CC[C@H]1C=CCC[C@@]2(C[C@@H]3CC[C@H]4[C@H](C(=O)OCCCCCCCCCCCCCCCC(=O)N(CCCN)C[C@@H](O)CCN)[C@]5(CCC[C@@H](C)O5)NC(=[N+]34)N2)O1: 1.82
- Nc1c2ccccc2nc2ccccc12 (tested in a mixture with another compound): 6.77

* * *

Test system: M19-MEL melanoma
Assay: NCI tumour cell line growth inhibition, 48 h
Observed property: TGI

- O=C(N/N=C(\c1nc2ccc(Cl)cc2[nH]c1=O)C(O)c1ccccc1Cl)c1ccncc1 (centres undefined): > 100 µM
- c1ccc2c(c1)[nH]c1c2ncc2[nH]c3ccccc3c21: 15.8 µM
- Cn1nc2ccccc2cc1=O: > 100 µM
- O=C(O)[C@@H](NS(=O)(=O)c1ccc([N+](=O)[O-])cc1)c1ccccc1: > 100 µM
